Known drug sensitivity score of a selection of compounds
test system: FMOC03 (patient-derived mucinous ovarian cancer cells); assay: drug sensitivity score (DSS3, normalised partial AUC of % inhibition dose-response) (DSS (score)); higher = more sensitive (stronger inhibition of viability); extreme values may be limits of the assay; conditions: 72 h; library: FO5A; assay format: 2D, 384-well, CellTiter-Glo
Lab note: jot down the number only; don't add units.

Record excerpt, results attached:
CC1(COc2ccc3c(c2)ncn3-c2ccc3cccc(N4CCC(N)CC4)c3n2)COC1 [Crenolanib] = 4.4
NC(=O)c1cccc(-c2cccc(OC(=O)NC3CCCCC3)c2)c1 [URB597] = 0
N#CCNC(=O)c1ccc(-c2ccnc(Nc3ccc(N4CCOCC4)cc3)n2)cc1 [Momelotinib] = 2.4
CC(=O)O[C@H]1C(=O)[C@@]2(C)[C@H]([C@H](OC(=O)c3ccccc3)[C@]3(O)C[C@H](OC(=O)[C@H](O)[C@@H](NC(=O)c4ccccc4)c4ccccc4)C(C)=C1C3(C)C)[C@]1(OC(C)=O)CO[C@@H]1C[C@@H]2O [Paclitaxel] = 11.9

// switching to the query compound
Q: Write down drug sensitivity score measured for item CO[C@H]1C[C@@H]2CC[C@@H](C)[C@@](O)(O2)C(=O)C(=O)N2CCCC[C@H]2C(=O)O[C@H]([C@H](C)C[C@@H]2CC[C@@H](OC(=O)C(C)(CO)CO)[C@H](OC)C2)CC(=O)[C@H](C)/C=C(\C)[C@@H](O)[C@@H](OC)C(=O)[C@H](C)C[C@H](C)/C=C/C=C/C=C/1C [Temsirolimus]
Result: 5.6

These entries and their values trace back to the supplement of paper PMC9938120.
